Tested on: P. falciparum 3D7 growth, pLDH absorbance
Assay: blood-stage malaria parasite growth potency – strain 3D7, dose response (AID 2305)
Give pIC50 for every item shown.
One number for each entry, as −log10 of the molar value.

Previously resolved entries follow.
| molecule | target-entity | pIC50 |
| --- | --- | --- |
| O=C(/C=C/c1ccc(Cl)cc1)NCCCCCN1CCC(c2c[nH]c3ccccc23)CC1 | P. falciparum 3D7 growth, pLDH absorbance | 6.08 |
| Cc1cccc2[nH]c(-c3ccc(-c4cccc(CNCCN5CCNCC5)c4)cc3)nc12 | P. falciparum 3D7 growth, pLDH absorbance | 5.91 |

# map each molecule to its pIC50
1. COc1cc(Cc2cnc(N)nc2N)cc(OCCCCNS(=O)(=O)C(F)(F)F)c1OC
2. Cc1ccc(S(=O)(=O)N(CCCN2CCN(C)CC2)Cc2csc(-c3ccc(CNCc4ccccc4)cc3)n2)cc1
3. N#Cc1ccc(N2CCN(Cc3cccc(-c4ccc(-c5nc6ccc(C(F)(F)F)cc6[nH]5)cc4)c3)CC2)nc1
4. Oc1ccc2c(CNC3CCCCC3)c(O)ccc2c1CNC1CCCCC1
5. CC(C)C[C@@H](C(=O)N[C@@H](CCCCNC(=O)OCc1ccccc1)C(=O)Nc1nccs1)[C@H](C)N(O)C=O
6. Cc1cnc(C(=O)Nc2cccc(-c3ccc(-c4nc5ccc(F)cc5[nH]4)cc3)c2)cn1
7. Cc1[nH]c(C)c(-c2ccc(OCc3ccc(OC(F)(F)F)cc3)nc2)c(=O)c1Br
8. CNC(=O)c1ccccc1Nc1nc(Nc2ccc(N3CCN(C)CC3)nc2)ncc1C

## Result
5.98
6.08
6.15
7.40
6.72
6.19
6.85
5.94

Hi, could you look up pIC50 for each item in my list?
1. O=C(NCCCCN1CCC(C(c2ccccc2)c2ccccc2)CC1)c1ccc(NC(=O)c2ccc(Cl)cc2)cc1
2. COc1ccc(CCN2CCC(Nc3nc4ccccc4n3CCc3ccc(OC)cc3)CC2)cc1
3. COc1ccc(OC)c(Cc2cnc3nc(N)[nH]c(=O)c3c2C)c1
4. c1cn(-c2ccc(CNc3nccc(Nc4ccc(OCCN5CCOCC5)cc4)n3)cc2)cn1
5. CC(=O)c1sc(NC(=O)Nc2ccc(C)cc2C)nc1C
6. O=C(Nc1ccc(CCNCCCc2ccccc2)cc1)Nc1ccc(Cl)c(Cl)c1
7. CCCc1c(C(=O)NC2CCC(CN3CCC(c4c[nH]c5ccccc45)CC3)CC2)cnn1-c1c(Cl)cc(Cl)cc1Cl (centres undefined)
8. COc1ccc(S(=O)(=O)N2CCC(NS(=O)(=O)c3ccc(F)cc3)CC2)cc1

## Result
[6.11, 6.18, 6.44, 6.06, 6.04, 6.57, 6.09, 5.88]

## Task Any idea what pIC50 was measured for COc1ccc(N2C(N)=NC(N)=NC2(C)C)cc1OC ?
## Result 6.51

###

Test system: P. falciparum 3D7 growth, pLDH absorbance
Experiment: blood-stage malaria parasite growth potency – strain 3D7, dose response (AID 2305)
I'd appreciate it if you marked entries Criterion met when IC50 is lower than 700 nM and Criterion not met when it is not.

Look over these answered cases.
| compound | discrete-label |
| --- | --- |
| CC(C)OC(=O)c1cccnc1SCC(=O)Nc1ccc(C(F)(F)F)cc1Cl | Criterion met |
| Cc1ncccc1C(=O)Nc1cccc(-c2cccc(-c3nc4ccc(C(F)(F)F)cc4[nH]3)c2)c1 | Criterion met |

## Task Please check: IC50 for COc1cccc(-c2ccc(C(=O)NCC3CCCN(Cc4cccc(C(F)(F)F)c4)C3)s2)c1 (stereo not given) , strictly under 700 nM or not?
## Result Criterion not met

## Task Say whether its IC50 is strictly beneath 700 nM. Entry: Oc1ccc(CCNc2nc(NCc3ccccc3-c3ccc(F)cc3)nc(N3CCNCC3)n2)cc1
## Result Criterion not met

## Task hey, is IC50 for CCCNCc1ccc(-c2ccc(CN(C(=O)c3nn(-c4ccccc4)nc3C)C3CCOCC3)cc2)nc1 lower than 700 nM or not?
## Result Criterion met

## Task # check: IC50 < 700 nM for FC(F)(F)c1ccc2nc(-c3ccc(-c4cccc(CN5CCCCC5)c4)cc3)[nH]c2c1
## Result Criterion met

## Task IC50 under 700 nM? Item: CCC(=O)c1c(C)n(-c2ncnc3c2nc(C)n3-c2ccc(C)cc2C)c2ccccc12
## Result Criterion met

## Task Here's an entry: O=C(Cc1cnc[nH]1)Nc1cccc(-c2cccc(-c3nc4ccccc4[nH]3)c2)c1 . Is its IC50 below 700 nM?
## Result Criterion not met

## Task Decide: IC50 of O=C(NC1CCN(c2ccnc3cc(Cl)ccc23)C1)c1ccccc1F (stereo not given) strictly below 700 nM?
## Result Criterion not met

## Task Does this compound meet the criterion IC50 < 700 nM? O=C(Nc1ccc(I)cc1)N1CCc2sccc2C1CN1CCCCC1 (stereo not given)
## Result Criterion not met

## Task Does the reported IC50 of the following compound sit strictly below 700 nM? CN(C)C1CCN(Cc2ccc(N3CCN(Cc4cccc5[nH]ccc45)CC3)nc2)CC1
## Result Criterion not met

## Task Given the entry CC(=O)c1cccc(NC(=O)NC2CCN(c3ccnc(Nc4ccc(F)cc4)n3)C2)c1 (stereo not given) , would its reported IC50 be below 700 nM?
## Result Criterion met

## Task Confirm or reject: IC50 of Cc1ccc(Cc2cnc(NCCSCc3ccc(CN(C)C)s3)[nH]c2=O)cn1 lies strictly below 700 nM
## Result Criterion not met

## Task Bench note: check whether Cc1cccc(-c2ccc3c(c2)CC(NCc2cccc(-n4ccnc4)c2)C3)c1 (stereo not given) shows IC50 below 700 nM
## Result Criterion not met

## Task For Cc1ccc(F)cc1S(=O)(=O)Nc1cccc(CCN2CCC(N3CCCCC3)CC2)c1 , is the recorded IC50 below the cut-off of 700 nM?
## Result Criterion not met

## Task hey, is IC50 for Cc1nc(-c2ccncc2)sc1C(=O)Nc1ccc(Cl)cc1C(=O)Nc1ccc(Cl)cc1 lower than 700 nM or not?
## Result Criterion not met

## Task Dear colleague, could you confirm whether IC50 of O=C(Nc1ccc2c(c1)CN(Cc1ccc(N3CCCC3)o1)CCC2)c1ccoc1 falls below 700 nM? Thanks.
## Result Criterion not met

## Task Lab log: compare recorded IC50 with 700 nM; is it strictly lower for c1ccc2[nH]c(-c3ccc(-c4ccc(CNCC5CCCO5)cc4)s3)nc2c1 (stereo not given) ?
## Result Criterion not met

## Task Just wondering, is IC50 of N=C(N)c1ccc(C(=O)Nc2cccc(C(=N)N)c2)cc1 below 700 nM?
## Result Criterion not met
